Reference source: patent US9771341B2

- Assay Target: ABHD6 (Mus musculus, UniProt Q8R2Y0)
- Construct: Proteomes (mouse brain membrane fraction or cell lysates); from tissue; host or cells: mouse brain membrane fraction (or unspecified cell lysates)
- Test Name: In vitro competitive activity-based protein profiling (mouse), ABHD6
- Format: biochemical
- Condition Parameters: mouse brain membrane fraction or cell lysates, 30 min preincubation at 37° C, FP-Rh probe
Measured Attribute: IC50

Record excerpt, results attached:
O=C(O)C1CN(c2cc(C(F)(F)F)ccc2CN2CCN(C(=O)OC(C(F)(F)F)C(F)(F)F)CC2)CCO1 (stereo not shown) : > 1000 nM
O=C(OC(C(F)(F)F)C(F)(F)F)N1CCN(Cc2ccc(N3CC4CCC(C3)O4)cc2F)CC1 : 100 to 1000 nM
O=C(O)C(=O)c1cc(C(F)(F)F)ccc1CN1CCN(C(=O)OC(C(F)(F)F)C(F)(F)F)CC1 : > 1000 nM

Now let's try a different one.
Ask: Recorded IC50 of NC(=O)C1CCN(c2cc(C(F)(F)F)ccc2CN2CCN(C(=O)OC(C(F)(F)F)C(F)(F)F)CC2)CC1 , please.
Result: 100 to 1000 nM

* * *

- Assay Target: ABHD6 (Mus musculus, UniProt Q8R2Y0)
- Construct: Proteomes (mouse brain membrane fraction or cell lysates); from tissue; host or cells: mouse brain membrane fraction (or unspecified cell lysates)
- Test Name: Mouse brain proteomes from inhibitor treated mice, ABHD6
- Type: in vivo
- Condition Parameters: 5 mg/kg oral gavage, C57Bl/6J mice, brain proteome 4 h after administration
Below: a set of entries, each annotated with reported inhibition at 5 mg/kg.

Record excerpt, results attached:
O=C(OC(C(F)(F)F)C(F)(F)F)N1CCN(Cc2ccc(C(F)(F)F)c(N3CC4CCC(C3)O4)c2)CC1 : > 75%
NC(=O)C1CCN(c2cc(Cl)ccc2CN2CCN(C(=O)OC(C(F)(F)F)C(F)(F)F)CC2)CC1 : > 75%
O=C(OC(C(F)(F)F)C(F)(F)F)N1CCN(Cc2ccc(C(F)(F)F)cc2N2CCC(CO)CC2)CC1 : < 25%

Ask: Recorded inhibition at 5 mg/kg of O=C(OC(C(F)(F)F)C(F)(F)F)N1CCN(Cc2ccc(CN3CCOCC3)cc2OC(F)(F)F)CC1 , please.
Result: < 25%

Ask: Next record, please: O=C(OC(C(F)(F)F)C(F)(F)F)N1CCN(Cc2ccc(Cl)cc2N2CC[C@H](CF)C2)CC1
Result: < 25%

Ask: Next record, please: O=C(OC(C(F)(F)F)C(F)(F)F)N1CCN(Cc2cccc(OC(F)(F)F)c2N2CCC(N3CCCC3)CC2)CC1
Result: < 25%

* * *

Below: a set of entries, each annotated with reported IC50.
- Assay Target: ABHD6 (Mus musculus, UniProt Q8R2Y0)
- Construct: Proteomes (mouse brain membrane fraction or cell lysates); from tissue; host or cells: mouse brain membrane fraction (or unspecified cell lysates)
- Sequence (Q8R2Y0 1-336): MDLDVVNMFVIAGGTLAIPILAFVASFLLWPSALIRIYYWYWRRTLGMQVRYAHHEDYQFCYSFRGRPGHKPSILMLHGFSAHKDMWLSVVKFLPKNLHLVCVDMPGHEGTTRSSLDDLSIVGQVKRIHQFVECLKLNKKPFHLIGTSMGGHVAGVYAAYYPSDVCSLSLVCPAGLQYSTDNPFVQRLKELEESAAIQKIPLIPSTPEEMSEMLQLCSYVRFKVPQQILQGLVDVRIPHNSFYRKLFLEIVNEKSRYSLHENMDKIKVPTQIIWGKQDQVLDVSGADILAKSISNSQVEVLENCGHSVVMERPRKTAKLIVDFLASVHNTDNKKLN
- Test Name: In vitro competitive activity-based protein profiling (mouse), ABHD6
- Type: biochemical
- Condition Parameters: mouse brain membrane fraction or cell lysates, 30 min preincubation at 37° C, FP-Rh probe
- Protocol: In Vitro Competitive Activity-Based Protein Profiling (Mouse). Proteomes (mouse brain membrane fraction or cell lysates) (50 μL, 1.0 mg/mL total protein concentration) were preincubated with varying concentrations of inhibitors at 37° C. After 30 min, FP-Rh (1.0 μL, 50 μM in DMSO) was added and the mixture was incubated for another 30 min at 37° C. Reactions were quenched with SDS loading buffer (50 μL-4×) and run on SDS-PAGE.

Ask: Recorded IC50 of O=C(OC(C(F)(F)F)C(F)(F)F)N1CCN(Cc2ccc(CN3CCOCC3)cc2OC(F)(F)F)CC1 , please.
Result: > 1000 nM

Ask: Next record, please: CC(=O)N[C@@H]1CCN(Cc2cccc(CN3CCN(C(=O)OC(C(F)(F)F)C(F)(F)F)CC3)c2C)C1
Result: 100 to 1000 nM

Ask: Next record, please: O=C(O)C1CCN(c2cc(C(F)(F)F)ccc2CN2CCN(C(=O)OC(C(F)(F)F)C(F)(F)F)CC2)CC1
Result: 100 to 1000 nM

Ask: Next record, please: Cc1c(CN2CCN(C(=O)OC(C(F)(F)F)C(F)(F)F)CC2)cccc1CN1CCCC[C@@H]1C
Result: 100 to 1000 nM

Ask: Next record, please: CCOC(=O)C1CCCN1c1cc(C(F)(F)F)ccc1CN1CCN(C(=O)OC(C(F)(F)F)C(F)(F)F)CC1 (stereo not drawn)
Result: 100 to 1000 nM

Ask: Next record, please: O=C(OC(C(F)(F)F)C(F)(F)F)N1CCN(Cc2cc(N3CCC(CO)C3)cc(C(F)(F)F)c2)CC1 (stereo not drawn)
Result: 100 to 1000 nM

Ask: Next record, please: COc1c(CN2CCC(F)CC2)cccc1CN1CCN(C(=O)OC(C(F)(F)F)C(F)(F)F)CC1
Result: 100 to 1000 nM

Ask: Next record, please: O=C(OC(C(F)(F)F)C(F)(F)F)N1CCN(Cc2ccc(C(F)(F)F)cc2N2CC[C@H](CF)C2)CC1
Result: > 1000 nM

Ask: Next record, please: O=C(O)[C@@H]1CCCN1c1cc(CN2CCN(C(=O)OC(C(F)(F)F)C(F)(F)F)CC2)cc(C(F)(F)F)c1
Result: 100 to 1000 nM

Ask: Next record, please: O=C(OC(C(F)(F)F)C(F)(F)F)N1CCN(Cc2cccc(CN3CCOCC3)c2F)CC1
Result: 100 to 1000 nM

Ask: Next record, please: O=C(OC(C(F)(F)F)C(F)(F)F)N1CCN(Cc2ccc(Cl)cc2N2CC[C@@H](N3CCCS3(=O)=O)C2)CC1
Result: 100 to 1000 nM

Ask: Next record, please: O=C(OC(C(F)(F)F)C(F)(F)F)N1CCN(Cc2ccc(C(F)(F)F)cc2N2CCC(CO)CC2)CC1
Result: > 1000 nM

Ask: Next record, please: Cc1c(CN2CCN(C(=O)OC(C(F)(F)F)C(F)(F)F)CC2)cccc1N1CCC(NS(C)(=O)=O)CC1
Result: 100 to 1000 nM

Ask: Next record, please: COc1c(CN2CCN(C(=O)OC(C(F)(F)F)C(F)(F)F)CC2)cccc1CN1CCC(F)(F)CC1
Result: 100 to 1000 nM

Ask: Next record, please: CC(=O)N[C@H]1CCN(Cc2cccc(CN3CCN(C(=O)OC(C(F)(F)F)C(F)(F)F)CC3)c2C)C1
Result: 100 to 1000 nM
